Tested on: C. albicans
MEASUREMENT DESCRIPTION: Broth microdilution susceptibility test (CLSI M27-A4), C. albicans
Assay type: cell-based
RUN CONDITIONS: RPMI 1640, 30 °C, 24–48 h, mean of triplicate, read-out: MIC75 C. albicans
Assign MIC to each entry below.
Use µM as the unit, but write only the number.

Give the reported value of MIC for this record: O=S(=O)(CC(F)(F)F)N1CCN(c2ccc(OC[C@@H]3CO[C@@](Cn4ccnc4)(c4ccc(Cl)cc4Cl)O3)cc2)CC1 1.6

Identify measured MIC corresponding to CCCS(=O)(=O)N1CCN(c2ccc(OC[C@@H]3CO[C@@](Cn4ccnc4)(c4ccc(Cl)cc4Cl)O3)cc2)CC1 0.125

Consider the molecule CS(=O)(=O)N1CCN(c2ccc(OC[C@@H]3CO[C@@](Cn4ccnc4)(c4ccc(Cl)cc4Cl)O3)cc2)CC1 and give its recorded MIC. 0.125

Look up and report measured MIC for this entry: O=S(=O)(N1CCN(c2ccc(OC[C@@H]3CO[C@@](Cn4ccnc4)(c4ccc(Cl)cc4Cl)O3)cc2)CC1)C(F)(F)F 0.8

Tell me measured MIC for O=S(=O)(C1CC1)N1CCN(c2ccc(OCC3COC(Cn4ccnc4)(c4ccc(Cl)cc4Cl)O3)cc2)CC1 (stereo not shown) please. 0.8

Give the measured MIC for CS(=O)(=O)CS(=O)(=O)N1CCN(c2ccc(OC[C@@H]3CO[C@@](Cn4ccnc4)(c4ccc(Cl)cc4Cl)O3)cc2)CC1 0.8

Return value of MIC for input N#CCS(=O)(=O)N1CCN(c2ccc(OC[C@@H]3CO[C@@](Cn4ccnc4)(c4ccc(Cl)cc4Cl)O3)cc2)CC1 , no commentary. 0.25

Determine from records and report MIC for O=S(=O)(CC(F)F)N1CCN(c2ccc(OC[C@@H]3CO[C@@](Cn4ccnc4)(c4ccc(Cl)cc4Cl)O3)cc2)CC1 0.062

Give the reported MIC for this molecule. O=S(=O)(CCC(F)(F)F)N1CCN(c2ccc(OC[C@@H]3CO[C@@](Cn4ccnc4)(c4ccc(Cl)cc4Cl)O3)cc2)CC1 1.6

Please report the measured MIC for CCS(=O)(=O)N1CCN(c2ccc(OC[C@@H]3CO[C@@](Cn4ccnc4)(c4ccc(Cl)cc4Cl)O3)cc2)CC1 0.125

* * *

SYSTEM TESTED: human Cyp3A4 (Homo sapiens)
Sequence (P08684 2-503 limits assumed): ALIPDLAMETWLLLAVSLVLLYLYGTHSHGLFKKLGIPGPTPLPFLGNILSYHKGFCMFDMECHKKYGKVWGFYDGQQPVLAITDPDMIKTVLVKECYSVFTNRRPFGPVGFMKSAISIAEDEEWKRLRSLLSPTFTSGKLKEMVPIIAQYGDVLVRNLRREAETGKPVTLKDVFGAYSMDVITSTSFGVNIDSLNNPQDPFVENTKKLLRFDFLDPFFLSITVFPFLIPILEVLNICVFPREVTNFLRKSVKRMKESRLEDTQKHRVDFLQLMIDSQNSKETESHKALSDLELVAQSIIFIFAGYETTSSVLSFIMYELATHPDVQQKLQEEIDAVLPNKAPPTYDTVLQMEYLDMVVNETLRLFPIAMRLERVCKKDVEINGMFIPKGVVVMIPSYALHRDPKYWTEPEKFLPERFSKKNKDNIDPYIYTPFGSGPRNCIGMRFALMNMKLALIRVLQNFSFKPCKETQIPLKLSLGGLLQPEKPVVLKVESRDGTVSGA
RUN CONDITIONS: read-out: CYP 3A4 IC50; human Cyp3A4 supersomes, 2 μM midazolam, 30 min at 37°C
Please provide measured IC50 for the entries that follow.
Give the quantity in nM, number only.

Name the value of IC50 reported for O=S(=O)(CC(F)(F)F)N1CCN(c2ccc(OC[C@@H]3CO[C@@](Cn4ccnc4)(c4ccc(Cl)cc4Cl)O3)cc2)CC1 [Entry 3j] when tested on human Cyp3A4 (Homo sapiens). 450

Specify IC50 for O=S(=O)(CC(F)F)N1CCN(c2ccc(OC[C@@H]3CO[C@@](Cn4ccnc4)(c4ccc(Cl)cc4Cl)O3)cc2)CC1 [Entry 3l] , system human Cyp3A4 (Homo sapiens). 162

Find IC50 for CCCS(=O)(=O)N1CCN(c2ccc(OC[C@@H]3CO[C@@](Cn4ccnc4)(c4ccc(Cl)cc4Cl)O3)cc2)CC1 [Entry 3c] on human Cyp3A4 (Homo sapiens) and write it down. 75.6

Report the value of IC50 obtained on human Cyp3A4 (Homo sapiens) for O=S(=O)(CCC(F)(F)F)N1CCN(c2ccc(OC[C@@H]3CO[C@@](Cn4ccnc4)(c4ccc(Cl)cc4Cl)O3)cc2)CC1 [Entry 3k] . 249

The values you see were collected from paper PMC10198183.
